- tested system: T1, human PDGFRb.hFc (human)
- T1 construct: Soluble dimeric construct with human Fc; also called hPDGFRb.hFc
- experiment description: SPR, mAb captured, 25 C
pKd: −log10 of the molar value.
Quick list: pKd per entry.

| binder | pKd |
| --- | --- |
| H4H3105S (antibody, human IgG4, V domains shown, human IgG4 Fc (H4H prefix)) VH: QVQLVESGGSLVQPGGSLRLACTASGFTFSSYWMSWVRQAPGKGLEWVANIQQDENEKYYVDSVKGRFSISRDNAKKSLYLQMNSLRVEDTAVYFCARDLVPPRQGDYYHYFGMDVWGQGTTVTVSS VL: DIQLTQSPSTLSASVGDRVTITCRASQSISDWLAWYQQKPGKAPNLLIYKASTLESGVPSRFSGSGSGTEFTLTISSLQPDDFATYYCQQYNSYSRTFGQGTKVEIK | 9.04 |
| H4H3098S (antibody, human IgG4, V domains shown, human IgG4 Fc (H4H prefix)) VH: EVQLVESGGGVVQPGRSLRLSCAASGFTFSNYGMHWVRQAPGKGLEWVTVIWYDGSYKYYADSVKGRFTISRDNSKNRLYLQMNSLRAEDTAVYYCARGELGDAFDIWGQGTMVTVSS VL: DIQMTQSPSTLSASVGDRLTITCRASQSISTWLAWYQQKPGKAPTLLIYKASSLESGVPSRFSGSGSGTDFTLTISSLQPDDFATYYCQQYKTSWTFGQGTKLEIKR | 9.66 |
| H4H3094P (antibody, human IgG4, V domains shown, also called H4H3394P) VH: EVQLVESGGGLVQPGGSLRLSCAASGFTFSSYWMSWVRQAPGKGLEWVANMNQDGSETHYVDSVKGRLSISRDNAKKSLFLHMNSLRAEDTAVYFCARDLVPPRQDDYYYYFGMDVWGHGTTVTVSS VL: DIQMTQSPSTLSASVGDRVTITCRASQSISDWLAWYQQKPGKAPKLLIFKASTLESGVPSRFSGSGSGTEFTLTISSLQPDDFATYYCQQYNSYSRTFGQGTKVEIK | 9.59 |
